# target-or-test-system: Cdk9/cyclinT1 (Homo sapiens (Human), UniProt P50750)
# Sequence (P50750 whole entry): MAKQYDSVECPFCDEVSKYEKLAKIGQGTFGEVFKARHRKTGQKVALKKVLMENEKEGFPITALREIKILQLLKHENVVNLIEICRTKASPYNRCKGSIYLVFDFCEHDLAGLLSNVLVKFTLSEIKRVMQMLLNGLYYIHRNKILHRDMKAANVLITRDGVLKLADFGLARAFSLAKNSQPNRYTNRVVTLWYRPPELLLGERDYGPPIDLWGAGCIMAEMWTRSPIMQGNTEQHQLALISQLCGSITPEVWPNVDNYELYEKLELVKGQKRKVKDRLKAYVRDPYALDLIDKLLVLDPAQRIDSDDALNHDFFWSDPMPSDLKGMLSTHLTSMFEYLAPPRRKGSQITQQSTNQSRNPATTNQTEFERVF
# Sequence (O60563 whole entry partner): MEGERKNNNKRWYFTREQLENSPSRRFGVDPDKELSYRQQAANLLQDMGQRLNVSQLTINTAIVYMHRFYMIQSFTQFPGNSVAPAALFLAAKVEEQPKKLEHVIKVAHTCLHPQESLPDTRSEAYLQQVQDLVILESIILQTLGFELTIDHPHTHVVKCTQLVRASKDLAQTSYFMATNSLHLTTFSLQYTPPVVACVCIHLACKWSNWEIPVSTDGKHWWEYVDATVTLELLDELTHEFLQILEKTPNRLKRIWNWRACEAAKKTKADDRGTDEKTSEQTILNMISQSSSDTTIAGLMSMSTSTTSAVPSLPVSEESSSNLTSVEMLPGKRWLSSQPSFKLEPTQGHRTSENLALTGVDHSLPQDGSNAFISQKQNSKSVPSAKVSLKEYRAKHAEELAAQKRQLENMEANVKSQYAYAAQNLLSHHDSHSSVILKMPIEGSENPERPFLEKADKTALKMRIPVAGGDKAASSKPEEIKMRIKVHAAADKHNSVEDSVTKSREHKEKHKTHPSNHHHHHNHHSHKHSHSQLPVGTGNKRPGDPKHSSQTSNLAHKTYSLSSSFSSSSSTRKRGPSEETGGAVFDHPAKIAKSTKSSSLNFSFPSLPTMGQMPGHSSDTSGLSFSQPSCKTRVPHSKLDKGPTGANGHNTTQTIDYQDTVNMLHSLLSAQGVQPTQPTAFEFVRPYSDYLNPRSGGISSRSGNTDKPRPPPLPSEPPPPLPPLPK
# protocol-details: Cdk9/CyclinT1 IMAP Protocol (fluorescence polarization kinase assay)
# test-parameters: Table 2; generated using one of the two Cdk9/cyclinT1 assays (IMAP or Alpha Screen), not specified which; unit inferred
Measured IC50 accompanies every entry in the list below.
readout-kind: IC50

> print(dat)
                                   molecule  readout.kind   result
1  CC(=O)N[C@H]1CC[C@H](Nc2cc(-c3cncc(NCC4CCOCC4)n3)c(Cl)cn2)CC1          IC50    79 nM
2  NC[C@H]1CC[C@H](Nc2cc(-c3cccc(NCc4ccc(F)cc4)n3)c(Cl)cn2)CC1          IC50  17.1 nM
3  CC(=O)N1CCC[C@H](CNc2cccc(-c3ccnc(N[C@H]4CC[C@H](N)CC4)c3)n2)C1          IC50   138 nM
4  COC[C@@H](C)N[C@H]1CC[C@H](Nc2cc(-c3nc(NCC4CCCCO4)ccc3Cl)c(Cl)cn2)CC1 (stereo in doubt) [Compound 325]          IC50    10 nM
5  OCCCCNc1cc(-c2cccc(NCc3cccc(F)c3)n2)c(Cl)cn1          IC50  7.94 nM
6   OCCNc1cc(-c2cncc(NCC3CCOCC3)n2)c(Cl)cn1          IC50    86 nM
7  CN1CCN([C@H]2CC[C@H](Nc3cc(-c4cccc(NCc5cccc(F)c5)n4)c(Cl)cn3)CC2)CC1          IC50    11 nM

* * *

Measured IC50 accompanies every entry in the list below.
# target-or-test-system: Cdk9/cyclinT1 (Homo sapiens (Human), UniProt P50750)
# protocol-details: Cdk9/CyclinT1 IMAP Protocol (fluorescence polarization kinase assay)
# test-parameters: Table 2; generated using one of the two Cdk9/cyclinT1 assays (IMAP or Alpha Screen), not specified which; unit inferred
readout-kind: IC50 (nM)

> print(dat)
                           substance.smiles  readout.kind  readout.units  number
1  Fc1cccc(CNc2cccc(-c3cc(N[C@H]4CC[C@H](CN5CCCC5)CC4)ncc3Cl)n2)c1          IC50             nM    27.3
2  CN(CC1CCOCC1)c1cncc(-c2cc(N[C@H]3CC[C@H](CO)CC3)ncc2Cl)n1          IC50             nM    43.2
3  N[C@H]1CC[C@H](Nc2cc(-c3cccc(NCc4cc(F)ccc4F)n3)c(Cl)cn2)CC1          IC50             nM     8.9

* * *

Measured pIC50 accompanies every entry in the list below.
# target-or-test-system: Cdk9/cyclinT1 (Homo sapiens (Human))
# protocol-details: Cdk9/CyclinT1 IMAP Protocol (fluorescence polarization kinase assay)
# test-parameters: Table 2; generated using one of the two Cdk9/cyclinT1 assays (IMAP or Alpha Screen), not specified which; unit inferred
pIC50: −log10 of the molar value.
readout-kind: pIC50

> print(dat)
                                   compound                 target.or.test.system  number
1  C[C@@H]1CC(CNc2cccc(-c3cc(N[C@H]4CC[C@H](N)CC4)ncc3Cl)n2)C[C@H](C)O1 (stereo partly drawn) [Compound 284]  Cdk9/cyclinT1 (Homo sapiens (Human))    9.00
2  Fc1cccc(CNc2cccc(-c3cc(NCCN4CCNCC4)ncc3Cl)n2)c1 [Compound 168]  Cdk9/cyclinT1 (Homo sapiens (Human))    7.43
3  CN(C)[C@H]1CC[C@H](Nc2cc(-c3cccc(NCc4cc(F)cc(F)c4)n3)c(Cl)cn2)CC1 [Compound 198]  Cdk9/cyclinT1 (Homo sapiens (Human))    8.10

* * *

# target-or-test-system: Cdk9/cyclinT1 (Homo sapiens (Human), UniProt P50750)
# protocol-details: Cdk9/CyclinT1 IMAP Protocol (fluorescence polarization kinase assay)
# test-parameters: Table 2; generated using one of the two Cdk9/cyclinT1 assays (IMAP or Alpha Screen), not specified which; unit inferred
Measured IC50 accompanies every entry in the list below.
readout-kind: IC50 (nM)

> print(dat)
                                    compound  readout.kind  number
 1  N[C@H]1CC[C@H](Nc2cc(-c3cncc(NCC4CCCOC4)n3)c(Cl)cn2)CC1 (stereo partly shown)          IC50    7.95
 2  Fc1cccc(CNc2cccc(-c3cc(NCCN4CCOCC4)ncc3Cl)n2)c1          IC50     218
 3  CC(=O)N1CCC[C@H](CNc2cccc(-c3cc(N[C@H]4CC[C@H](N)CC4)ncc3Cl)n2)C1          IC50    65.5
 4  CC1(CNc2nc(-c3cc(N[C@H]4CC[C@H](NC5CCS(=O)(=O)CC5)CC4)ncc3Cl)ccc2F)CCOCC1          IC50       1
 5  N#CC1(CNc2cccc(-c3cc(N[C@H]4CC[C@H](O)CC4)ncc3Cl)n2)CCOCC1          IC50    0.24
 6  O[C@H]1CC[C@H](Nc2cc(-c3cccc(NC4CCNCC4)n3)c(Cl)cn2)CC1          IC50    84.8
 7  N[C@H]1CC[C@H](Nc2ncc(Cl)c(-c3cccc(NCC4CCCCC4)n3)n2)CC1          IC50     238
 8  NCCNc1cccc(-c2cc(N[C@H]3CC[C@H](O)CC3)ncc2Cl)n1          IC50     124
 9  N[C@H]1CC[C@H](Nc2cc(-c3cccc(NC[C@H]4CCCO4)n3)c(Cl)cn2)CC1          IC50     141
10  COC[C@H]1CC[C@H](Nc2cc(-c3cccc(NCc4cccc(F)c4)n3)c(Cl)cn2)CC1          IC50     100
11  Clc1cnc(N[C@H]2CC[C@H](N3CCCC3)CC2)cc1-c1cnc(Cl)c(NCC2CCOCC2)n1          IC50    7.95
12  Fc1cccc(CNc2cccc(-c3cc(N[C@H]4CC[C@H](N5CCOCC5)CC4)ncc3Cl)n2)c1          IC50    7.95
13  CN(CC1CCOCC1)c1cccc(-c2cc(N[C@H]3CC[C@H](N)CC3)ncc2Cl)n1          IC50    7.95
14  N[C@H]1CC[C@H](Nc2cc(-c3ccc(F)c(NCC4CCOCC4)n3)c(Cl)cn2)CC1          IC50    7.95
15  O[C@H]1CC[C@H](Nc2cc(-c3cncc(NCC4CCCOC4)n3)c(Cl)cn2)CC1 (stereo partly shown)          IC50    7.95
16  O[C@H]1CC[C@H](Nc2cc(-c3cccc(NCc4ccc(F)cc4)n3)c(Cl)cn2)CC1          IC50    10.5

* * *

Measured IC50 accompanies every entry in the list below.
# target-or-test-system: Cdk9/cyclinT1 (Homo sapiens (Human))
# protocol-details: Cdk9/CyclinT1 IMAP Protocol (fluorescence polarization kinase assay)
# test-parameters: Table 2; generated using one of the two Cdk9/cyclinT1 assays (IMAP or Alpha Screen), not specified which; unit inferred
readout-kind: IC50 (nM)

> print(dat)
                            substance.smiles                 target.or.test.system  readout.kind  number
 1  N[C@H]1CC[C@H](Nc2cc(-c3cccc(NCc4cccc(C(F)(F)F)c4)n3)c(Cl)cn2)CC1  Cdk9/cyclinT1 (Homo sapiens (Human))          IC50    7.95
 2  O[C@H]1CC[C@@H](Nc2cc(-c3cccc(NCc4cccc(F)c4)n3)c(Cl)cn2)C1  Cdk9/cyclinT1 (Homo sapiens (Human))          IC50    7.94
 3  N[C@H]1CC[C@H](Nc2cc(-c3cc(C(F)(F)F)cc(NCc4cccc(F)c4)n3)ccn2)CC1  Cdk9/cyclinT1 (Homo sapiens (Human))          IC50     133
 4  COCCN[C@H]1CC[C@H](Nc2cc(-c3nc(NCC4CCOCC4)ccc3Cl)c(Cl)cn2)CC1  Cdk9/cyclinT1 (Homo sapiens (Human))          IC50    7.94
 5  O[C@H]1CC[C@H](Nc2cc(-c3cncc(NC[C@@H]4CCCOC4)n3)c(Cl)cn2)CC1  Cdk9/cyclinT1 (Homo sapiens (Human))          IC50    7.94
 6  OCCCNc1cc(-c2cccc(NCc3cccc(F)c3)n2)c(Cl)cn1  Cdk9/cyclinT1 (Homo sapiens (Human))          IC50    7.95
 7  CS(=O)(=O)CCN[C@H]1CC[C@H](Nc2cc(-c3cccc(NCc4cccc(F)c4)n3)c(Cl)cn2)CC1  Cdk9/cyclinT1 (Homo sapiens (Human))          IC50    7.95
 8  N[C@H]1CC[C@H](Nc2cc(-c3cccc(NCc4ccc(Cl)cc4)n3)c(Cl)cn2)CC1  Cdk9/cyclinT1 (Homo sapiens (Human))          IC50    7.95
 9  N[C@H]1CC[C@H](Nc2cc(-c3nc(NCC4CCOCC4)cnc3Cl)c(Cl)cn2)CC1  Cdk9/cyclinT1 (Homo sapiens (Human))          IC50    7.95
10  NC[C@H]1CC[C@H](Nc2cc(-c3cccc(NCc4cccc(F)c4)n3)c(Cl)cn2)CC1  Cdk9/cyclinT1 (Homo sapiens (Human))          IC50    9.05
11  Clc1cnc(NC2CCNCC2)cc1-c1cccc(NCc2ccccc2)n1  Cdk9/cyclinT1 (Homo sapiens (Human))          IC50     154
12  Clc1cnc(NC2CCNCC2)cc1-c1cccc(NCc2ccncc2)n1  Cdk9/cyclinT1 (Homo sapiens (Human))          IC50     114
13  N[C@H]1CC[C@H](Nc2cc(-c3cccc(NCc4cccc(Br)c4)n3)c(Cl)cn2)CC1  Cdk9/cyclinT1 (Homo sapiens (Human))          IC50    7.94
14  COc1cnc(N[C@H]2CC[C@H](N)CC2)cc1-c1cccc(NCc2cccc(F)c2)n1  Cdk9/cyclinT1 (Homo sapiens (Human))          IC50    12.1
15  O=C(c1cccnc1)N1CCC(Nc2cc(-c3cccc(NCc4cccc(F)c4)n3)c(Cl)cn2)CC1  Cdk9/cyclinT1 (Homo sapiens (Human))          IC50      69

# credit: patent US8778951B2
